molecular target: asialoglycoprotein receptor (ASGPR) on HepG2 cells (human) (UniProt P07306); assay: flow cytometry, % FAM-positive HepG2 cells after 24 h with 200 nM ligand
Sequence (P07306 whole entry, chain 1 of 2): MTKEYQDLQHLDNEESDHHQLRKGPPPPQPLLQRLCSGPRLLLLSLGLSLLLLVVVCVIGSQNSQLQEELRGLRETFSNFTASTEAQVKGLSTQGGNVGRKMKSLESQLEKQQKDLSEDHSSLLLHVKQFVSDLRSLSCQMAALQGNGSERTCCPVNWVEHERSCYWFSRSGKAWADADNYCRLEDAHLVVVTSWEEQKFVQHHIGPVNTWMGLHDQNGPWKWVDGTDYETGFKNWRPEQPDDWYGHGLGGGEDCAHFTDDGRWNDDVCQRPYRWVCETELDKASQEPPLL
Sequence (P07307 whole entry, chain 2 of 2, further chain): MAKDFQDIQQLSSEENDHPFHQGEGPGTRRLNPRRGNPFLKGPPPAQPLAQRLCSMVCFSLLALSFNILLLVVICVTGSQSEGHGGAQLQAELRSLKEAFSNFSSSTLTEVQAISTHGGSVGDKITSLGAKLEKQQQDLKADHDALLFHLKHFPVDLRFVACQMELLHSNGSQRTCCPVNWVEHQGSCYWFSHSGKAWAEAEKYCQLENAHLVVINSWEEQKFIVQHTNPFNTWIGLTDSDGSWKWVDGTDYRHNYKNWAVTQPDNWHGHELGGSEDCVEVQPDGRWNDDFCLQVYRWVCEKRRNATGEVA
Square brackets hold non-standard residues; d marks the D form. Side chains are listed from the residue outwards. * marks the point of attachment. Gal‑1 = GalNAc linker: 5-(GalNAc-oxy)pentanoic acid (3-acetamido-4,5-diacetoxy-6-(acetoxymethyl)tetrahydropyran-2-yl-oxy)pentanoic acid; Gal‑3 = GalNAc linker: 4-(GalNAc-oxy)butanoic acid (3-acetamido-4,5-diacetoxy-6-(acetoxymethyl)tetrahydropyran-2-yl-oxy)butanoic acid; 5FAM = O=C1OC2(c3ccc(O)cc3Oc3cc(O)ccc32)c2ccc(C(=O)*)cc21; Linker2 = 6-aminohexyl amide linker; GalNAc = N-acetylgalactosamine
measurement label: Efficiency (%) (proportion of FAM positive cells)
Numbers only here, please. The scale is %.

>>> readout_value("KEKGKG (head-to-tail cyclic; D-Lys at the three Lys positions and D-Glu; each D-Lys side chain carries GalNAc via linker Gal-5; D-Glu side chain carries Linker2 with 5-FAM) [5-FAM-CPMB-0025]")
98.2
>>> readout_value("cyclo(K([Gal‑3-GalNAc])[dE]([Linker2-5FAM])K([Gal‑3-GalNAc])GK([Gal‑3-GalNAc])G) [5-FAM-CPMB-0033]")
98.2
>>> readout_value("cyclo(K([Gal‑1-GalNAc])[dE]([Linker2-5FAM])K([Gal‑1-GalNAc])GK([Gal‑1-GalNAc])G) [5-FAM-CPMB-0031]")
98.6
>>> readout_value("cyclo([dK]([Gal‑1-GalNAc])[dE]([Linker2-5FAM])[dK]([Gal‑1-GalNAc])G[dK]([Gal‑1-GalNAc])G) [5-FAM-CPMB-0021]")
98.8
>>> readout_value("KEKGKG (head-to-tail cyclic; D-Glu; each Lys side chain carries GalNAc via linker Gal-4; D-Glu side chain carries Linker2 with 5-FAM) [5-FAM-CPMB-0034]")
95.6
>>> readout_value("KEKGKG (head-to-tail cyclic; D-Glu; each Lys side chain carries GalNAc via linker Gal-5; D-Glu side chain carries Linker2 with 5-FAM) [5-FAM-CPMB-0035]")
99.5

The record that follows has no Efficiency (%) (proportion of FAM positive cells) shown yet.
Query: Entry under review: cyclo([dK]([Gal‑3-GalNAc])[dE]([Linker2-5FAM])[dK]([Gal‑3-GalNAc])G[dK]([Gal‑3-GalNAc])G) [5-FAM-CPMB-0023] . Reported Efficiency (%) (proportion of FAM positive cells)?
Reply: 99.2
